# EXPERIMENT DESCRIPTION: Toxicity in RBC (unknown origin) assessed as hemolysis after 48 hrs at 20 to 80 ug/ml by spectrophotometry
# Type: cell-based, Erythrocyte
# CONDITION SET: red blood cells (RBC); read-out: Activity
MEASURED PROPERTY: hemolysis at 48 h (%)
// return numeric value only (unit: %, not printed)

>  <COMPOUND>
COc1cc(C2CC(c3cccc(Nc4ccnc5cc(Cl)ccc45)c3)=NN2C=O)cc(OC)c1OC (configuration not stated)

>  <hemolysis at 48 h [%]>
3.4

$$$$

Field request: hemolysis at 48 h | item: O=CN1N=C(c2ccc(Nc3ccnc4cc(Cl)ccc34)cc2)CC1c1ccc(Br)cc1 (configuration not stated)
3.2

Same question, CC(=O)N1N=C(c2ccc(Nc3ccnc4cc(Cl)ccc34)cc2)CC1c1ccccc1 (configuration not stated) this time
2.8

Also, CC(=O)N1N=C(c2ccc(Nc3ccnc4cc(Cl)ccc34)cc2)CC1c1ccc(Cl)cc1 (configuration not stated) please.
3.4

Check O=CN1N=C(c2ccc(Nc3ccnc4cc(Cl)ccc34)cc2)CC1c1ccccc1 (configuration not stated) too.
3.8

Repeat for the following compound: COc1ccc(C2CC(c3ccc(Nc4ccnc5cc(Cl)ccc45)cc3)=NN2C(C)=O)cc1 (configuration not stated)
3.1

Another compound to check: CCN(CC)CCCC(C)Nc1ccnc2cc(Cl)ccc12 (configuration not stated) [CHLOROQUINE PHOSPHATE]
17.2
